System: macrophages
Assay: Cytotoxicity assay (MTT), macrophages
Assay type: cell-based, BALB/c mouse
Conditions: Mus musculus, Macrophage; 72 h, mean ± SD; read-out: IC50 macro
OUTCOME MEASURE: pIC50
Keep in mind that pIC50 stands for -log10 of concentration in molar terms.

MOLECULE: CCOC(=O)C1=C(C)NC2=C(C(=O)CC(C)(C)C2)C1c1c(OC)cc(OC)cc1OC (stereo not shown) [Compound 14]
pIC50: 4.77

Now look at this entry.
Query: pIC50; subject: CCOC(=O)C1=C(C)NC(C)=C(C(=O)OCC)C1c1ccc(OCc2ccccc2)cc1 [Compound 19] 4.36

---

Test system: T. gondii tachyzoites (RH strain)
Assay: Anti-Toxoplasma activity (infection index in Vero cells, 72 h)
Format: cell-based, Toxoplasma gondii
Details: Toxoplasma gondii, Vero, mean ± SD
OUTCOME MEASURE: EC50 (µM)
Please state the figure in µM; there is no need to write the unit.

MOLECULE: CCOC(=O)C1=C(C)NC2=C(C(=O)CC(C)(C)C2)C1c1ccc(Br)cc1 (stereo not shown)
EC50 (µM): 23.4

Now look at this entry.
Query: EC50; subject: CCOC(=O)C1=C(C)NC2=C(C(=O)CC(C)(C)C2)C1c1ccccc1[N+](=O)[O-] (racemic) 12

---

Tested on: macrophages
Test: Cytotoxicity assay (MTT), macrophages
Type: cell-based, BALB/c mouse
Conditions: Mus musculus, Macrophage; 72 h, mean ± SD; read-out: IC50 macro
Description: Female BALB/c mouse peritoneal macrophages (6–8 weeks old) were used to culture L. major amastigotes to assess the activity of the compounds against amastigotes. Briefly, 1 mL of 3% Brewer’s thioglycollate medium/mouse was injected into the peritoneal cavity. […] The percentage of infected macrophages was assessed microscopically after the medium was removed, followed by washing with PBS, fixation with methanol, and staining with Giemsa. The reading was performed in triplicate. […]
OUTCOME MEASURE: pIC50
Keep in mind that pIC50 stands for -log10 of concentration in molar terms.

Worked set:
COMPOUND: CCOC(=O)C1=C(C)NC2=C(C(=O)CC(C)(C)C2)C1c1ccc(N(C)C)cc1 (centres unmarked)
REPORTED: 4.30
//
COMPOUND: CCOC(=O)C1=C(C)NC(C)=C(C(=O)OCC)C1c1ccc(Br)cc1
REPORTED: 4.35
//
COMPOUND: CCOC(=O)C1=C(C)NC2=C(C(=O)CC(C)(C)C2)C1c1ccc(OCc2ccccc2)cc1 (racemic)
REPORTED: 4.60

Query: pIC50; subject: CCOC(=O)C1=C(C)NC2=C(C(=O)CC(C)(C)C2)C1c1ccc(O)c(OC)c1 (centres unmarked) 4.32

Query: pIC50; subject: CCOC(=O)C1=C(C)NC(C)=C(C(=O)OCC)C1c1cc(OC)c(OC)c(OC)c1 4.47

---

Entries and their pEC50 values follow.
System: T. gondii tachyzoites (RH strain)
Test: Anti-Toxoplasma activity (infection index in Vero cells, 72 h)
Type: cell-based, Toxoplasma gondii
Details: Toxoplasma gondii, Vero, mean ± SD
pEC50: −log10 of the molar value.

Worked set:
MOLECULE: CCOC(=O)C1=C(C)NC2=C(C(=O)CC(C)(C)C2)C1c1ccc2c(c1)OCO2 (centres unmarked)
pEC50: 4.52

MOLECULE: CCOC(=O)C1=C(C)NC2=C(C(=O)CC(C)(C)C2)C1c1c(OC)cc(OC)cc1OC (centres unmarked)
pEC50: < 4.32

MOLECULE: CCOC(=O)C1=C(C)NC2=C(C(=O)CC(C)(C)C2)C1c1ccc(O)c(OC)c1 (centres unmarked)
pEC50: 4.58

MOLECULE: CCOC(=O)C1=C(C)NC2=C(C(=O)CC(C)(C)C2)C1c1ccccc1 (centres unmarked)
pEC50: < 4.21

MOLECULE: CCOC(=O)C1=C(C)NC2=C(C(=O)CC(C)(C)C2)C1c1ccco1 (centres unmarked)
pEC50: < 4.29

Query: pEC50; subject: CCOC(=O)C1=C(C)NC(C)=C(C(=O)OCC)C1c1ccccc1 > 4.30

Query: pEC50; subject: CCOC(=O)C1=C(C)NC2=C(C(=O)CC(C)(C)C2)C1c1ccc(N(C)C)cc1 (centres unmarked) 4.53

Query: pEC50; subject: CCOC(=O)C1=C(C)NC2=C(C(=O)CC(C)(C)C2)C1c1cc(OC)c(OC)c(OC)c1 (centres unmarked) < 4.32

---

Tested on: T. gondii tachyzoites (RH strain)
Assay: Anti-Toxoplasma activity (infection index in Vero cells, 72 h)
Type: cell-based, Toxoplasma gondii
Details: Toxoplasma gondii, Vero, mean ± SD
Entries and their EC50 values follow.

Worked set:
COMPOUND: CCOC(=O)C1=C(C)NC2=C(C(=O)CC(C)(C)C2)C1c1cccc(Cl)c1 (centres unmarked)
ASSAYED SYSTEM: T. gondii tachyzoites (RH strain)
EC50: > 55.6 µM

COMPOUND: CCOC(=O)C1=C(C)NC2=C(C(=O)CC(C)(C)C2)C1c1ccc(OCc2ccccc2)cc1 (racemic)
ASSAYED SYSTEM: T. gondii tachyzoites (RH strain)
EC50: 3.1 µM

COMPOUND: CCOC(=O)C1=C(C)NC(C)=C(C(=O)OCC)C1c1ccc(OC)cc1
ASSAYED SYSTEM: T. gondii tachyzoites (RH strain)
EC50: > 57.9 µM

COMPOUND: CCOC(=O)C1=C(C)NC2=C(C(=O)CC(C)(C)C2)C1c1ccc(C)cc1 (centres unmarked)
ASSAYED SYSTEM: T. gondii tachyzoites (RH strain)
EC50: > 58.8 µM

COMPOUND: CCOC(=O)C1=C(C)NC2=C(C(=O)CC(C)(C)C2)C1c1ccc(OC)cc1 (centres unmarked)
ASSAYED SYSTEM: T. gondii tachyzoites (RH strain)
EC50: > 56.3 µM

Now look at this entry.
Query: EC50; subject: CCOC(=O)C1=C(C)NC2=C(C(=O)CC(C)(C)C2)C1c1cccc([N+](=O)[O-])c1 (centres unmarked) 16.4 µM

---

Entries and their IC50 values follow.
System: Vero cells
Assay: Cytotoxicity assay (MTT), Vero cells
Format: cell-based, African Green Monkey
Conditions: Chlorocebus sabaeus, 72 h, mean ± SD
Method: The MTT colorimetric assay was conducted to assess the cytotoxicity of the compounds according to a method described previously. Briefly, Vero cells or macrophages were cultured in 96-well plates (5 × 10^3 cells/well/200 μL) in RPMI 1640 medium with 10% FBS at 37 °C and under 5% CO2 for 24 h. Thereafter, PBS was used to wash the cells. […] Next, 150 μL of DMSO was added, and a microplate absorbance spectrophotometer was applied for colorimetric analysis (λ = 540 nm). […]

COMPOUND: CCOC(=O)C1=C(C)NC2=C(C(=O)CC(C)(C)C2)C1c1ccc(Br)cc1 (stereo not shown)
IC50: 17.4 µM

Query: IC50; subject: CCOC(=O)C1=C(C)NC2=C(C(=O)CC(C)(C)C2)C1c1ccco1 (stereo not shown) > 51.3 µM

Query: IC50; subject: CCOC(=O)C1=C(C)NC(C)=C(C(=O)OCC)C1c1cc(OC)c(OC)c(OC)c1 14.8 µM

Query: IC50; subject: C[C@@H]1[C@H](O)[C@@H](C)/C=C/C=C/C=C/C=C/C=C/C=C/C=C/[C@H](O[C@@H]2O[C@H](C)[C@@H](O)[C@H](N)[C@@H]2O)C[C@@H]2O[C@](O)(C[C@@H](O)C[C@@H](O)[C@H](O)CC[C@@H](O)C[C@@H](O)CC(=O)O[C@H]1C)C[C@H](O)[C@H]2C(=O)O [AmB, amphotericin B, reference compound] 10.3 µM

Query: IC50; subject: CCOC(=O)C1=C(C)NC2=C(C(=O)CC(C)(C)C2)C1c1cccc(Cl)c1 (stereo not shown) > 55.6 µM

Query: IC50; subject: CCOC(=O)C1=C(C)NC2=C(C(=O)CC(C)(C)C2)C1c1ccc(OC)cc1 (stereo not shown) 49.8 µM

---

System: macrophages
Assay: Cytotoxicity assay (MTT), macrophages
Assay type: cell-based, BALB/c mouse
Conditions: Mus musculus, Macrophage; 72 h, mean ± SD; read-out: IC50 macro
OUTCOME MEASURE: pIC50
Keep in mind that pIC50 stands for -log10 of concentration in molar terms.

COMPOUND: CCOC(=O)C1=C(C)NC2=C(C(=O)CC(C)(C)C2)C1c1ccc(C)cc1 (centres unmarked)
pIC50: 4.32
//
COMPOUND: CCOC(=O)C1=C(C)NC2=C(C(=O)CC(C)(C)C2)C1c1ccc(OC)cc1 (centres unmarked)
pIC50: 4.41
//
COMPOUND: CCOC(=O)C1=C(C)NC(C)=C(C(=O)OCC)C1c1cccc([N+](=O)[O-])c1
pIC50: 4.33
//
COMPOUND: CCOC(=O)C1=C(C)NC2=C(C(=O)CC(C)(C)C2)C1c1cccc([N+](=O)[O-])c1 (centres unmarked)
pIC50: 4.61
//
COMPOUND: CCOC(=O)C1=C(C)NC2=C(C(=O)CC(C)(C)C2)C1c1cccs1 (centres unmarked)
pIC50: 4.52

Find the measured pIC50: item CCOC(=O)C1=C(C)NC2=C(C(=O)CC(C)(C)C2)C1c1ccccc1[N+](=O)[O-] (racemic) , target or system macrophages. 4.92

Find the measured pIC50: item CCOC(=O)C1=C(C)NC2=C(C(=O)CC(C)(C)C2)C1c1ccc2c(c1)OCO2 (centres unmarked) , target or system macrophages. 4.37

Find the measured pIC50: item CCOC(=O)C1=C(C)NC(C)=C(C(=O)OCC)C1c1ccc(O)c(OC)c1 , target or system macrophages. 4.39

Find the measured pIC50: item CCOC(=O)C1=C(C)NC2=C(C(=O)CC(C)(C)C2)C1c1ccc(Br)cc1 (centres unmarked) , target or system macrophages. 4.63
